- test-target: HaloTag-ING2 PHD (mouse Ing2 200-280)
- procedure-summary: peptide microarray binding signal (635 nm), min-max normalized on array (fraction of array maximum); higher = stronger binding
- conditions: peptide region: Unmod H1 variant; binder concentration: 100 nM
Measured peptide microarray binding signal by item
recorded-metric: peptide microarray binding signal

INSERT INTO assay_data (binder, assay_result) VALUES
  ('LNKKASSVETKPG [Unmod H1 variant L N K K A S S V E T K P G]', 0.0114),
  ('DSQIKLSIKRLVT [Unmod H1 variant D S Q I K L S I K R L V T]', 0.00801),
  ('AKKPAGAAKKPKK [Unmod H1 variant A K K P A G A A K K P K K]', 0.00765),
  ('AKAVKPKAAKPKT [Unmod H1 variant A K A V K P K A A K P K T]', 0.00765),
  ('ALAAAGYDVEKNN [Unmod H1 variant A L A A A G Y D V E K N N]', 0.0252),
  ('PKKAKKPAAAAGA [Unmod H1 variant P K K A K K P A A A A G A]', 0.00652),
  ('KPKKATGAATPKK [Unmod H1 variant K P K K A T G A A T P K K]', 0.00893),
  ('TKKEIKKVATPKK [Unmod H1 variant T K K E I K K V A T P K K]', 0.00482);

Taken from the supplement of paper PMC4022240.
